target: T1, human CTLA-4, full-length, expressed on transfected Expi293 cells (human, UniProt P16410 36-223); assay: flow cytometry, 100 nM, Expi293 cells with human CTLA-4
T1 construct: whole, on cells
T1 sequence (P16410 36-223): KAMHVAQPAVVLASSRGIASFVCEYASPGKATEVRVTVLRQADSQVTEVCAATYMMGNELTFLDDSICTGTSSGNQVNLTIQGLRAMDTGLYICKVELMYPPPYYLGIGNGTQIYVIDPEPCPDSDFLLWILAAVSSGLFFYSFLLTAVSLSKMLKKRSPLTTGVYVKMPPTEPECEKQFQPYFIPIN
Measured MFI ratio to WT (ΔWT), listed per entry for reference.
Kindly provide the numeric value in fold only, without the unit symbol.

Examples with their reported MFI ratio to WT (ΔWT) follow.
variant ICOSL IgV-Fc fusion N52M/N57H/Q100S (Fc fusion) DTQEKEVRAMVGSDVELSCACPEGSRFDLNDVYVYWQTSESKTVVTYHIPQMSSLEHVDSRYRNRALMSPAGMLRGDFSLRLFNVTPQDEQKFHCLVLSSSLGFQEVLSVEVTLHVAANFSVGSGGGGSEPKSSDKTHTCPPCPAPEAEGAPSVFLFPPKPKDTLMISRTPEVTCVVVDVSHEDPEVKFNWYVDGVEVHNAKTKPREEQYNSTYRVVSVLTVLHQDWLNGKEYKCKVSNKALPAPIEKTISKAKGQPREPQVYTLPPSREEMTKNQVSLTCLVKGFYPSDIAVEWESNGQPENNYKTTPPVLDSDGSFFLYSKLTVDKSRWQQGNVFSCSVMHEALHNHYTQKSLSLSPG: 1.4
variant ICOSL IgV-Fc fusion N52G/N57V/Q100G (Fc fusion) DTQEKEVRAMVGSDVELSCACPEGSRFDLNDVYVYWQTSESKTVVTYHIPQGSSLEVVDSRYRNRALMSPAGMLRGDFSLRLFNVTPQDEQKFHCLVLSGSLGFQEVLSVEVTLHVAANFSVGSGGGGSEPKSSDKTHTCPPCPAPEAEGAPSVFLFPPKPKDTLMISRTPEVTCVVVDVSHEDPEVKFNWYVDGVEVHNAKTKPREEQYNSTYRVVSVLTVLHQDWLNGKEYKCKVSNKALPAPIEKTISKAKGQPREPQVYTLPPSREEMTKNQVSLTCLVKGFYPSDIAVEWESNGQPENNYKTTPPVLDSDGSFFLYSKLTVDKSRWQQGNVFSCSVMHEALHNHYTQKSLSLSPG: 0.04
variant ICOSL IgV-Fc fusion N52M/N57W/Q100P (Fc fusion) DTQEKEVRAMVGSDVELSCACPEGSRFDLNDVYVYWQTSESKTVVTYHIPQMSSLEWVDSRYRNRALMSPAGMLRGDFSLRLFNVTPQDEQKFHCLVLSPSLGFQEVLSVEVTLHVAANFSVGSGGGGSEPKSSDKTHTCPPCPAPEAEGAPSVFLFPPKPKDTLMISRTPEVTCVVVDVSHEDPEVKFNWYVDGVEVHNAKTKPREEQYNSTYRVVSVLTVLHQDWLNGKEYKCKVSNKALPAPIEKTISKAKGQPREPQVYTLPPSREEMTKNQVSLTCLVKGFYPSDIAVEWESNGQPENNYKTTPPVLDSDGSFFLYSKLTVDKSRWQQGNVFSCSVMHEALHNHYTQKSLSLSPG: 1.04
variant ICOSL IgV-Fc fusion N52V/N57T/Q100L (Fc fusion) DTQEKEVRAMVGSDVELSCACPEGSRFDLNDVYVYWQTSESKTVVTYHIPQVSSLETVDSRYRNRALMSPAGMLRGDFSLRLFNVTPQDEQKFHCLVLSLSLGFQEVLSVEVTLHVAANFSVGSGGGGSEPKSSDKTHTCPPCPAPEAEGAPSVFLFPPKPKDTLMISRTPEVTCVVVDVSHEDPEVKFNWYVDGVEVHNAKTKPREEQYNSTYRVVSVLTVLHQDWLNGKEYKCKVSNKALPAPIEKTISKAKGQPREPQVYTLPPSREEMTKNQVSLTCLVKGFYPSDIAVEWESNGQPENNYKTTPPVLDSDGSFFLYSKLTVDKSRWQQGNVFSCSVMHEALHNHYTQKSLSLSPG: 0.03
variant ICOSL IgV-Fc fusion N52R/N57Y/Q100R (Fc fusion) DTQEKEVRAMVGSDVELSCACPEGSRFDLNDVYVYWQTSESKTVVTYHIPQRSSLEYVDSRYRNRALMSPAGMLRGDFSLRLFNVTPQDEQKFHCLVLSRSLGFQEVLSVEVTLHVAANFSVGSGGGGSEPKSSDKTHTCPPCPAPEAEGAPSVFLFPPKPKDTLMISRTPEVTCVVVDVSHEDPEVKFNWYVDGVEVHNAKTKPREEQYNSTYRVVSVLTVLHQDWLNGKEYKCKVSNKALPAPIEKTISKAKGQPREPQVYTLPPSREEMTKNQVSLTCLVKGFYPSDIAVEWESNGQPENNYKTTPPVLDSDGSFFLYSKLTVDKSRWQQGNVFSCSVMHEALHNHYTQKSLSLSPG: 0.01

Query: Would you mind telling me what MFI ratio to WT (ΔWT) value was observed for variant ICOSL IgV-Fc fusion N57Q/Q100P (Fc fusion) DTQEKEVRAMVGSDVELSCACPEGSRFDLNDVYVYWQTSESKTVVTYHIPQNSSLEQVDSRYRNRALMSPAGMLRGDFSLRLFNVTPQDEQKFHCLVLSPSLGFQEVLSVEVTLHVAANFSVGSGGGGSEPKSSDKTHTCPPCPAPEAEGAPSVFLFPPKPKDTLMISRTPEVTCVVVDVSHEDPEVKFNWYVDGVEVHNAKTKPREEQYNSTYRVVSVLTVLHQDWLNGKEYKCKVSNKALPAPIEKTISKAKGQPREPQVYTLPPSREEMTKNQVSLTCLVKGFYPSDIAVEWESNGQPENNYKTTPPVLDSDGSFFLYSKLTVDKSRWQQGNVFSCSVMHEALHNHYTQKSLSLSPG ?
Result: 0.21

Query: Would you mind telling me what MFI ratio to WT (ΔWT) value was observed for variant ICOSL IgV-Fc fusion N52S/N57Y/Q100S (Fc fusion) DTQEKEVRAMVGSDVELSCACPEGSRFDLNDVYVYWQTSESKTVVTYHIPQSSSLEYVDSRYRNRALMSPAGMLRGDFSLRLFNVTPQDEQKFHCLVLSSSLGFQEVLSVEVTLHVAANFSVGSGGGGSEPKSSDKTHTCPPCPAPEAEGAPSVFLFPPKPKDTLMISRTPEVTCVVVDVSHEDPEVKFNWYVDGVEVHNAKTKPREEQYNSTYRVVSVLTVLHQDWLNGKEYKCKVSNKALPAPIEKTISKAKGQPREPQVYTLPPSREEMTKNQVSLTCLVKGFYPSDIAVEWESNGQPENNYKTTPPVLDSDGSFFLYSKLTVDKSRWQQGNVFSCSVMHEALHNHYTQKSLSLSPG ?
Result: 0.62

Query: Would you mind telling me what MFI ratio to WT (ΔWT) value was observed for variant ICOSL IgV-Fc fusion N52H/N57Y/Q100R (Fc fusion, not shown: a dimerising Fc or GST) DTQEKEVRAMVGSDVELSCACPEGSRFDLNDVYVYWQTSESKTVVTYHIPQHSSLEYVDSRYRNRALMSPAGMLRGDFSLRLFNVTPQDEQKFHCLVLSRSLGFQEVLSVEVTLHVAANFSV ?
Result: 2.47
